tested on: HS 578T breast; assay: NCI tumour cell line growth inhibition, 48 h
Kindly supply the reported TGI values for the records listed here.

[[record]]
molecule = "COc1cc2c(cc1OC)C1(c3ccccc3)CN(C2)Cc2cc(OC)c(OC)cc21"
measured_attribute = "TGI"
test_result = "75.5 µM"

[[record]]
molecule = "Cc1ccccc1N=Nc1c(O)[nH]c2ccccc12"
measured_attribute = "TGI"
test_result = "> 100 µM"

[[record]]
molecule = "CN1CCN(C(=S)N(C(=O)c2ccco2)c2ccccc2)CC1"
measured_attribute = "TGI"
test_result = "> 100 µM"

[[record]]
molecule = "COc1ccc(C2=NN(c3ccccc3)C(c3cc4cc(Br)ccc4nc3Cl)C2)cc1 (centres undefined)"
measured_attribute = "TGI"
test_result = "> 25 µM"

[[record]]
molecule = "CN(C)CCCNc1nccc(-c2c(-c3ccc(F)cc3)nn3cc(C(F)(F)F)ccc23)n1"
measured_attribute = "TGI"
test_result = "> 25 µM"


Each molecule below has a recorded value; state its TGI.
1. CN1c2ccccc2S(=O)(=O)n2c(COc3ccc(Cl)cc3)nnc21
2. CO/N=C1/c2sccc2[C@H](NC(=O)C(F)(F)F)[C@@H]1O
3. N#CN1CCC[C@H]1C(=O)N1CCc2c(-c3[nH]nc4ncccc34)cccc21
4. O=C(O)CCCCn1cnc2c(=S)nc[nH]c21
5. CCOC(=O)C(=O)N=Nc1nc2c(O)c3ccccc3c(O)c2s1
6. COc1cc2c3c(n(CCN(C)C)c(=O)c2cc1OC)-c1cc2c(cc1C3=O)OCO2
7. CC(/C=C/c1ccc([N+](=O)[O-])o1)=N/N1CC(CN2CCOCC2)OC1=O (centres undefined)
8. O=C1/C(=C\c2coc3ccccc3c2=O)c2ccccc2N1c1c(Cl)cccc1Cl

Result block:
> 100 µM
> 100 µM
> 100 µM
> 100 µM
10.5 µM
> 100 µM
> 100 µM
> 100 µM

Take each entry in turn and give its TGI.
1. CCOC(=O)c1cc2c([nH]1)C(=O)CC1=C2CCN1Cc1ccccc1
2. O=C(NNC(=O)c1ccncc1)c1ccncc1
3. CCCCNC(=O)Nc1c(C(N)=O)c2n(c1C(=O)OCC)CCCCC2
4. Cc1ccc(S(=O)(=O)Oc2cc(S(=O)(=O)O)cc3cc(S(=O)(=O)O)cc(N)c23)cc1
5. CC1C/C(=N\N(C)C)C(C#N)(C#N)C1(C#N)C#N (centres undefined)
6. CC(=O)Nc1cc2c(cc1O)CC[C@@H]1[C@@H]2CC[C@]2(C)[C@@H](O)CC[C@@H]12
7. CSc1nc2c(N)ncnc2n1C

Result block:
1: 57.4 µM; 2: > 100 µM; 3: > 100 µM; 4: > 100 µM; 5: > 88.3 µM; 6: > 100 µM; 7: > 100 µM

Dear colleague, could you send me TGI for each of the items below? Thanks.
1. CCN(CC)Cc1nc(C2CCC([N+](=O)[O-])O2)no1 (centres undefined)
2. COc1ccc(-c2nn(-c3cccc(NC(=O)Nc4cc(C(F)(F)F)cc(C(F)(F)F)c4)c3)cc2-c2ccncc2)cc1Cl
3. c1ccc(-c2nn(-c3ccccc3)[n+](-c3cccc4ccccc34)n2)cc1

Result block:
82.4 µM
5.52 µM
> 100 µM

Required: TGI, one value per molecule below.
1. N#Cc1c(-c2ccccc2)cc(-c2ccccc2)n(CCCCC(=O)NO)c1=O
2. Cc1c(C(=O)O)c2cc3ccccc3cc2c(=O)n1C
3. CC1(C)C(=S)C(C)(C)C1=S
4. CCCCCC(=O)OCC1(CO)C/C(=C\CC(C(C)C)C(C)C)C(=O)O1 (centres undefined)
5. [N-]=[N+]=Nc1c([N+](=O)[O-])c(Cl)nc2ccccc12
6. c1ccc2sc(C3(N4CCCCC4)CCCCCC3)cc2c1
7. COc1ccc(-c2cc(/C=C3\C(=O)Nc4ccc(OC)cc43)[nH]n2)cc1
8. CC(=O)OC1CCC2(C)C(=CCC3C2CCC2(C)C(C(C)C(=O)O)CCC32)C1 (centres undefined)

Result block:
8.18 µM
> 10 µM
> 100 µM
> 100 µM
8.64 µM
42 µM
> 100 µM
> 100 µM
